The compounds listed here are annotated with their TGI.
# Tested on: U251 CNS
# methodDescription: NCI tumour cell line growth inhibition, 48 h
endpointLabel: TGI

molecule: c1ccc(Sc2nc(Sc3ccccc3)nc(Sc3ccccc3)n2)cc1
reported: > 100 µM
//
molecule: COC(=O)[C@@H](NC(=O)c1ccc(CNC(=O)/C(C)=C/c2ccccc2)cc1)C(C)C
reported: > 100 µM
//
molecule: N/C(=N\C(N)=N\c1nc2ccccc2s1)c1ccnc(Br)c1
reported: 48.9 µM
//
molecule: Cc1sc2nc3n(c(=O)c2c1C)N=C(c1ccccc1)CS3
reported: > 100 µM
//
molecule: O=C(c1ccccc1)c1c2n(c3c1cc(O)c1ccccc13)CCN2
reported: 3.4 µM
//
molecule: NNc1ncnc2cccc(Cl)c12
reported: > 100 µM
//
molecule: CN(C)C=Nc1c2c(nc3ccccc13)CCCC2
reported: > 100 µM
//
molecule: O=Cc1cn(S(=O)(=O)c2ccccc2)c2ccccc12
reported: > 100 µM
